target_or_system: Factor X (FX), P00742
Sequence (P00742 whole entry, looked up): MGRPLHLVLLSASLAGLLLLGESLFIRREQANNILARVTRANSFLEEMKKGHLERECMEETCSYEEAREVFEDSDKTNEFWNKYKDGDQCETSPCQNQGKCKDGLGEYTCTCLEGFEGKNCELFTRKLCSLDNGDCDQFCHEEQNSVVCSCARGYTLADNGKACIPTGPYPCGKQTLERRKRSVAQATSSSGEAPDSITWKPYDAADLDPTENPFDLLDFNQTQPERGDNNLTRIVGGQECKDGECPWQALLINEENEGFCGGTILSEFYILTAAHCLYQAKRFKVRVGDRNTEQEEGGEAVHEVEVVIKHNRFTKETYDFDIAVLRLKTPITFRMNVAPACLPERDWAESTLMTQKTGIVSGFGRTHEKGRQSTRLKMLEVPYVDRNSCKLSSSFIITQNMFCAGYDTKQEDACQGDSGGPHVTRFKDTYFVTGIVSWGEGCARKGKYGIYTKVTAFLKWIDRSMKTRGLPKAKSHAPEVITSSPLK
assay_endpoint: kcat of FX activation by FIXa (Xase complex with FVIIIa, PC/PS vesicles, Ca2+) (s⁻¹)
Answers are plain numbers, in s⁻¹.

Solved entries:
protein	reported_result
FIXa-D104N/K106S/N260S/R318Y/R338E/R403E/E410N (protein) chain 1: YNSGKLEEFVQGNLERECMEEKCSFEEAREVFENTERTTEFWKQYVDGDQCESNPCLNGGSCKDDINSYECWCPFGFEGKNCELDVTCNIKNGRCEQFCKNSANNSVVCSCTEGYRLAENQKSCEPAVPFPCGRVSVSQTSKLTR chain 2: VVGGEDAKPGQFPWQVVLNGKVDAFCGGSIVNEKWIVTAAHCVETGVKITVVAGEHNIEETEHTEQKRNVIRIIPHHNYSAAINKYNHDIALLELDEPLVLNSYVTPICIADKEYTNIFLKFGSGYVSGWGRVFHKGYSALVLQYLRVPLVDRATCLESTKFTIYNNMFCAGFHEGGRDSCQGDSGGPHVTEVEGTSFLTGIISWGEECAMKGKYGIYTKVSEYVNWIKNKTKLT	5.4
FIXa-R318Y/R338E/T343R/N346Y/R403E/E410N (protein) chain 1: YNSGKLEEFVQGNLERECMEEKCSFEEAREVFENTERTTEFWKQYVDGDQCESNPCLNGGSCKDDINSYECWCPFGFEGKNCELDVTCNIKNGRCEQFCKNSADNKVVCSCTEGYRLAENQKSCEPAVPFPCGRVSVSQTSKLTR chain 2: VVGGEDAKPGQFPWQVVLNGKVDAFCGGSIVNEKWIVTAAHCVETGVKITVVAGEHNIEETEHTEQKRNVIRIIPHHNYNAAINKYNHDIALLELDEPLVLNSYVTPICIADKEYTNIFLKFGSGYVSGWGRVFHKGYSALVLQYLRVPLVDRATCLESTKFRIYYNMFCAGFHEGGRDSCQGDSGGPHVTEVEGTSFLTGIISWGEECAMKGKYGIYTKVSEYVNWIKNKTKLT	4.6
FIXa-D104N/K106S/R318Y/R338E/T343R/R403E/E410N (protein) chain 1: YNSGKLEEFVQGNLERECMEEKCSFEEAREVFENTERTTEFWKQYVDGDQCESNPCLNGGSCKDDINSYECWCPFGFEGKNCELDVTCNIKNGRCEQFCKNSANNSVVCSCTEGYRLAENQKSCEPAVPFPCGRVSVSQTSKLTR chain 2: VVGGEDAKPGQFPWQVVLNGKVDAFCGGSIVNEKWIVTAAHCVETGVKITVVAGEHNIEETEHTEQKRNVIRIIPHHNYNAAINKYNHDIALLELDEPLVLNSYVTPICIADKEYTNIFLKFGSGYVSGWGRVFHKGYSALVLQYLRVPLVDRATCLESTKFRIYNNMFCAGFHEGGRDSCQGDSGGPHVTEVEGTSFLTGIISWGEECAMKGKYGIYTKVSEYVNWIKNKTKLT	5.7
FIXa-R318Y/R338E/R403E/E410S (protein) chain 1: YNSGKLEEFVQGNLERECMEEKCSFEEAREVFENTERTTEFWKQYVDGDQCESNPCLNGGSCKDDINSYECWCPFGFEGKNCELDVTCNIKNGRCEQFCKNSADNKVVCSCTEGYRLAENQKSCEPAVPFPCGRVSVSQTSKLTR chain 2: VVGGEDAKPGQFPWQVVLNGKVDAFCGGSIVNEKWIVTAAHCVETGVKITVVAGEHNIEETEHTEQKRNVIRIIPHHNYNAAINKYNHDIALLELDEPLVLNSYVTPICIADKEYTNIFLKFGSGYVSGWGRVFHKGYSALVLQYLRVPLVDRATCLESTKFTIYNNMFCAGFHEGGRDSCQGDSGGPHVTEVEGTSFLTGIISWGEECAMKGKYGIYTKVSEYVNWIKSKTKLT	7.4
FIXa-K247N/N249S/N260S/R318Y/R338E/R403E/E410N (protein) chain 1: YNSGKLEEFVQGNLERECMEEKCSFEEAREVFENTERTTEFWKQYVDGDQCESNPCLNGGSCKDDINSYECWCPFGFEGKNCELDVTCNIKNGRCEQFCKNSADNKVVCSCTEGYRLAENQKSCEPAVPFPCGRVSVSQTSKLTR chain 2: VVGGEDAKPGQFPWQVVLNGKVDAFCGGSIVNEKWIVTAAHCVETGVKITVVAGEHNIEETEHTEQNRSVIRIIPHHNYSAAINKYNHDIALLELDEPLVLNSYVTPICIADKEYTNIFLKFGSGYVSGWGRVFHKGYSALVLQYLRVPLVDRATCLESTKFTIYNNMFCAGFHEGGRDSCQGDSGGPHVTEVEGTSFLTGIISWGEECAMKGKYGIYTKVSEYVNWIKNKTKLT	3.4
FIXa-R318Y/R338E/R403E/E410N/T412V (protein) chain 1: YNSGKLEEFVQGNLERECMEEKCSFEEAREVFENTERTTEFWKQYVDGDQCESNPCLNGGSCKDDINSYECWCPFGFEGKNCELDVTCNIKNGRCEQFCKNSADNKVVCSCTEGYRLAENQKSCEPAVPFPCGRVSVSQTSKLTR chain 2: VVGGEDAKPGQFPWQVVLNGKVDAFCGGSIVNEKWIVTAAHCVETGVKITVVAGEHNIEETEHTEQKRNVIRIIPHHNYNAAINKYNHDIALLELDEPLVLNSYVTPICIADKEYTNIFLKFGSGYVSGWGRVFHKGYSALVLQYLRVPLVDRATCLESTKFTIYNNMFCAGFHEGGRDSCQGDSGGPHVTEVEGTSFLTGIISWGEECAMKGKYGIYTKVSEYVNWIKNKVKLT	7

Now consider the entry below.
Reported kcat of FX activation by FIXa (Xase complex with FVIIIa, PC/PS vesicles, Ca2+), protein FIXa-R318Y/R338E/Y345A/R403E/E410N (protein) chain 1: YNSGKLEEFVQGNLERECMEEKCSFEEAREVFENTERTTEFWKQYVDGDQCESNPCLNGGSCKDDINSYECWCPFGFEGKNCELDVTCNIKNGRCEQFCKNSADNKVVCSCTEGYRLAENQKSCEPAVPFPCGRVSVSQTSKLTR chain 2: VVGGEDAKPGQFPWQVVLNGKVDAFCGGSIVNEKWIVTAAHCVETGVKITVVAGEHNIEETEHTEQKRNVIRIIPHHNYNAAINKYNHDIALLELDEPLVLNSYVTPICIADKEYTNIFLKFGSGYVSGWGRVFHKGYSALVLQYLRVPLVDRATCLESTKFTIANNMFCAGFHEGGRDSCQGDSGGPHVTEVEGTSFLTGIISWGEECAMKGKYGIYTKVSEYVNWIKNKTKLT : ____
1.4
